Value source: PubChem BioAssay AID2060609

System: 855422-203-R-J1-PDC complex spheroids, viability
Test Description: Anticancer human tumor 855422-203-R-J1-PDC patient-derived bladder carcinoma cell line growth inhibition [CLK]
Measurement Parameters: second compound 0.0316 µM; first compound 3.16 µM; hits give low values
Property: viability, T/C; scope: individual compounds

| Compound | Measured Quantity | Value Reported |
| --- | --- | --- |
| CC(=O)O[C@H]1C(=O)[C@@]2(C)[C@H]([C@H](OC(=O)c3ccccc3)[C@]3(O)C[C@H](OC(=O)[C@H](O)[C@@H](NC(=O)c4ccccc4)c4ccccc4)C(C)=C1C3(C)C)[C@]1(OC(C)=O)CO[C@@H]1C[C@@H]2O + CN1CCN(c2cc(C(=O)Nc3cc4cc(-c5cnn(C)c5)ccc4cn3)ccn2)CC1 | viability, T/C | 9.46% |

Quick one: viability, T/C for CC(Nc1ccc2c(c1)OCCn1cc(N3C(=O)OCC3C(F)F)nc1-2)C(N)=O (stereo not given) + CN1CCN(c2cc(C(=O)Nc3cc4cc(-c5cnn(C)c5)ccc4cn3)ccn2)CC1 ?
26.4%

Data request, read-out viability, T/C, for O=c1[nH]cc(F)c(=O)[nH]1 + CNC(=O)c1ccc(Nc2nc(OC3CCCC3)c3c(-c4ccc5nc(C)oc5c4)c[nH]c3n2)c(OC)c1
67.5%

Consider the compound Nc1ccccc1NC(=O)c1ccc(CNC(=O)OCc2cccnc2)cc1 + CNC(=O)c1ccc(Nc2nc(OC3CCCC3)c3c(-c4ccc5nc(C)oc5c4)c[nH]c3n2)c(OC)c1 and give its measured viability, T/C.
22.4%

Recorded viability, T/C of C#Cc1c(F)ccc2cc(O)cc(-c3ncc4c(N5CC6CCC(C5)N6)nc(OCC56CCCN5CC(F)C6)nc4c3F)c12 (stereo not given) + CN1CCN(c2cc(C(=O)Nc3cc4cc(-c5cnn(C)c5)ccc4cn3)ccn2)CC1 , please.
104%

---

Tested on: 855422-203-R-J1-PDC complex spheroids, viability
Test Description: Anticancer human tumor 855422-203-R-J1-PDC cell line growth inhibition [CLK];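 also: spheroids exposed to drugs for seven days before readout; 100% = DMSO vehicle control wells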
Measurement Parameters: second compound 0.0316 µM; first compound 1 µM; hits give low values
Measured Quantity: viability, T/C

Reference set, count: 3
| Compound | viability, T/C |
| --- | --- |
| Nc1ccccc1NC(=O)c1ccc(CNC(=O)OCc2cccnc2)cc1 + CNC(=O)c1ccc(Nc2nc(OC3CCCC3)c3c(-c4ccc5nc(C)oc5c4)c[nH]c3n2)c(OC)c1 | 49.4% |
| Nc1ccccc1NC(=O)c1ccc(CNC(=O)OCc2cccnc2)cc1 + CN1CCN(c2cc(C(=O)Nc3cc4cc(-c5cnn(C)c5)ccc4cn3)ccn2)CC1 | 49% |
| CC(Nc1ccc2c(c1)OCCn1cc(N3C(=O)OCC3C(F)F)nc1-2)C(N)=O (stereo not given) + CN1CCN(c2cc(C(=O)Nc3cc4cc(-c5cnn(C)c5)ccc4cn3)ccn2)CC1 | 35.4% |

Please look up its viability, T/C: C#Cc1c(F)ccc2cc(O)cc(-c3ncc4c(N5CC6CCC(C5)N6)nc(OCC56CCCN5CC(F)C6)nc4c3F)c12 (stereo not given) + CNC(=O)c1ccc(Nc2nc(OC3CCCC3)c3c(-c4ccc5nc(C)oc5c4)c[nH]c3n2)c(OC)c1
87.2%

Data request, read-out viability, T/C, for C=CC(=O)N1CCN(c2nc(=O)n(-c3c(C)ccnc3C(C)C)c3nc(-c4c(O)cccc4F)c(F)cc23)C(C)C1 (stereo not given) + CNC(=O)c1ccc(Nc2nc(OC3CCCC3)c3c(-c4ccc5nc(C)oc5c4)c[nH]c3n2)c(OC)c1
103%

---

System: 855422-203-R-J1-PDC complex spheroids, viability
Test Description: Anticancer human tumor 855422-203-R-J1-PDC cell line growth inhibition [CLK];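 also: spheroids exposed to drugs for seven days before readout; 100% = DMSO vehicle control wells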
Measurement Parameters: second compound 10 µM; first compound 0.316 µM; hits give low values
Source text: A high-throughput screen of multi-cell type tumor spheroids was designed to identify active combinations of […] and targeted small molecules. Complex spheroids include a stromal component modeled by human endothelial cells (HUVEC) and fibroblasts modeled by human mesenchymal stem cells (MSCs). […] Compounds. […] If the clinical Cmax for an agent had not been determined, the highest concentration tested was 10 microM. […]
Measured Quantity: viability, T/C (%)
Write the number in % without appending the unit.

Please review the following examples before continuing.
| Molecule | Value Reported |
| --- | --- |
| C=C(F)C(=O)N1CCN(c2nc(OCC3CCCN3C)nc3c2CCN(c2cccc4cccc(Cl)c24)C3)CC1CC#N (stereo not given) + CNC(=O)c1ccc(Nc2nc(OC3CCCC3)c3c(-c4ccc5nc(C)oc5c4)c[nH]c3n2)c(OC)c1 | 21 |
| CC(=O)O[C@H]1C(=O)[C@@]2(C)[C@H]([C@H](OC(=O)c3ccccc3)[C@]3(O)C[C@H](OC(=O)[C@H](O)[C@@H](NC(=O)c4ccccc4)c4ccccc4)C(C)=C1C3(C)C)[C@]1(OC(C)=O)CO[C@@H]1C[C@@H]2O + CN1CCN(c2cc(C(=O)Nc3cc4cc(-c5cnn(C)c5)ccc4cn3)ccn2)CC1 | 0.33 |
| CCCS(=O)(=O)Nc1ccc(F)c(C(=O)c2c[nH]c3ncc(-c4ccc(Cl)cc4)cc23)c1F + CNC(=O)c1ccc(Nc2nc(OC3CCCC3)c3c(-c4ccc5nc(C)oc5c4)c[nH]c3n2)c(OC)c1 | 20 |
| O=c1[nH]cc(F)c(=O)[nH]1 + CN1CCN(c2cc(C(=O)Nc3cc4cc(-c5cnn(C)c5)ccc4cn3)ccn2)CC1 | 0.37 |

Dear colleague, I am looking for the recorded viability, T/C of the following molecule: O=C(c1cc(Cc2n[nH]c(=O)c3ccccc23)ccc1F)N1CCN(C(=O)C2CC2)CC1 + CN1CCN(c2cc(C(=O)Nc3cc4cc(-c5cnn(C)c5)ccc4cn3)ccn2)CC1
0.38

---

Test system: 855422-203-R-J1-PDC complex spheroids, viability
Test Description: Anticancer human tumor 855422-203-R-J1-PDC cell line growth inhibition [CLK];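 also: spheroids exposed to drugs for seven days before readout; 100% = DMSO vehicle control wells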
Measurement Parameters: second compound 10 µM; first compound 0.0949 µM; hits give low values
Measured Quantity: viability, T/C

Study these solved cases before continuing.
| Compound | viability, T/C |
| --- | --- |
| NC(=O)C(=Cn1cnc(-c2cc(C(F)(F)F)cc(C(F)(F)F)c2)n1)c1cncnc1 + CN1CCN(c2cc(C(=O)Nc3cc4cc(-c5cnn(C)c5)ccc4cn3)ccn2)CC1 | 0.34% |
| CC(C)CC(NC(=O)C(Cc1ccccc1)NC(=O)c1cnccn1)B(O)O (stereo not drawn) + CN1CCN(c2cc(C(=O)Nc3cc4cc(-c5cnn(C)c5)ccc4cn3)ccn2)CC1 | 0.22% |

Continue with the compound presented below.
viability, T/C lookup needed for CC(C)CC(NC(=O)C(Cc1ccccc1)NC(=O)c1cnccn1)B(O)O (stereo not drawn) + CNC(=O)c1ccc(Nc2nc(OC3CCCC3)c3c(-c4ccc5nc(C)oc5c4)c[nH]c3n2)c(OC)c1 , thanks.
0.28%

---

Test system: 855422-203-R-J1-PDC complex spheroids, viability
Test Description: Anticancer human tumor 855422-203-R-J1-PDC cell line growth inhibition [CLK];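 also: spheroids exposed to drugs for seven days before readout; 100% = DMSO vehicle control wells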
Measurement Parameters: second compound 1 µM; first compound 0.1 µM; hits give low values
Labelling: viability, T/C reported below 1% becomes satisfied; at or above becomes not satisfied.

| Compound | Cat |
| --- | --- |
| COc1cccc2c1C(=O)c1c(O)c3c(c(O)c1C2=O)CC(O)(C(=O)CO)CC3OC1CC(N)C(O)C(C)O1 (stereo unspecified) + CNC(=O)c1ccc(Nc2nc(OC3CCCC3)c3c(-c4ccc5nc(C)oc5c4)c[nH]c3n2)c(OC)c1 | not satisfied |
| COC1C=CCC(C)C(C)S(=O)(=O)NC(=O)c2ccc3c(c2)N(CC2CCC21)CC1(CCCc2cc(Cl)ccc21)CO3 (stereo unspecified) + CNC(=O)c1ccc(Nc2nc(OC3CCCC3)c3c(-c4ccc5nc(C)oc5c4)c[nH]c3n2)c(OC)c1 | not satisfied |
| CC(Nc1ccc2c(c1)OCCn1cc(N3C(=O)OCC3C(F)F)nc1-2)C(N)=O (stereo unspecified) + CNC(=O)c1ccc(Nc2nc(OC3CCCC3)c3c(-c4ccc5nc(C)oc5c4)c[nH]c3n2)c(OC)c1 | not satisfied |
| CCN1CCN(Cc2ccc(Nc3ncc(F)c(-c4cc(F)c5nc(C)n(C(C)C)c5c4)n3)nc2)CC1 + CNC(=O)c1ccc(Nc2nc(OC3CCCC3)c3c(-c4ccc5nc(C)oc5c4)c[nH]c3n2)c(OC)c1 | not satisfied |
| CCc1c2c(nc3ccc(O)cc13)-c1cc3c(c(=O)n1C2)COC(=O)[C@]3(O)CC + CNC(=O)c1ccc(Nc2nc(OC3CCCC3)c3c(-c4ccc5nc(C)oc5c4)c[nH]c3n2)c(OC)c1 | not satisfied |

Consider now this further compound.
Answer whether the compound CCN1CCN(Cc2ccc(Nc3ncc(F)c(-c4cc(F)c5nc(C)n(C(C)C)c5c4)n3)nc2)CC1 + CN1CCN(c2cc(C(=O)Nc3cc4cc(-c5cnn(C)c5)ccc4cn3)ccn2)CC1 has viability, T/C strictly less than 1%
satisfied
